Tested on: SK-MEL-28
Experiment: NCI tumour cell line growth inhibition, 48 h
The source made the active and inactive calls. No stated cut-off is given here; in the data, active = GI50 up to about 1.1 µM and inactive = higher.
Reply using exactly one outcome from Yes for active, No for inactive

1. N#Cc1nc(C2=C(Cl)c3ccccc3OC2)[nH]c1C#N ... No
2. COc1cc(C[C@@]2(C)[C@@H]3CCC[C@H](CO)[C@@]3(C)CC[C@@H]2C)c(Cl)c(OC)c1 ... No
3. COC(=O)[C@H](Cc1ccccc1)NC(=O)N(CCC#N)CCCCN(CCC#N)C(=O)N[C@@H](Cc1ccccc1)C(=O)OC ... No

Ask: Test call, this compound: COc1cc([N+](=O)[O-])c(S(=O)(=O)O)cc1-n1nc(-c2ccccc2)n[n+]1-c1cc(S(=O)(=O)[O-])c([N+](=O)[O-])cc1OC
Reply: No

----------
Test system: HOP-92
Test: NCI tumour cell line growth inhibition, 48 h
Activity calls are given as the source filed them. Rule as the data show it: active = GI50 up to about 1.1 µM and inactive = higher.
Parameter GI50: see the listing below.

# annotated cases, reported GI50 shown
1. C#C/C=C\CCCC/C=C\C#CC#CCCCC#CC#C[C@H](COS(=O)(=O)O)OS(=O)(=O)O ... > 100 µM (inactive)
2. CN(C)CCNC(=O)c1cccc2c(NCC(=O)O)c3ccccc3nc12 ... 8.04 µM (inactive)
3. O/N=C1\CCCCC1C(NO)c1ccccc1 (stereo not given) ... 42.7 µM (inactive)
4. NCCCCC(NC(=O)C(N)Cc1ccc(O)cn1)C(=O)O (stereo not given) ... > 100 µM (inactive)
5. COc1cc2nncc(SCc3ccc(Cl)c(Cl)c3)c2cc1OC ... > 45.8 µM (inactive)

Ask: // GI50 lookup, key: CN(C)CCCNC(=O)c1cn2c(ccc3sc4ccccc4c(=O)c32)n1
Reply: 2.15 µM (inactive)

Ask: Quick check: GI50 of COc1ccc(C2SCC(=O)N2NC(=O)c2ccc(NC(C)=O)cc2)c(OC)c1 (stereo not given) ?
Reply: > 100 µM (inactive)

Ask: For the compound COc1cc(/C=C/C(=O)O)ccc1O [FERULATE] , what GI50 is on record?
Reply: > 100 µM (inactive)

Ask: Requested field: GI50. Item: Clc1ccc(-c2nnc3c4nnc(-c5ccc(Cl)cc5Cl)n4c4ccccc4n23)c(Cl)c1
Reply: 92.3 µM (inactive)

Ask: Item C=C1c2nc3ccccc3n2C=C(c2ccc(OC)cc2)N1c1ccc(OCCN2CCCCC2)cc1 has what recorded GI50?
Reply: 28.1 µM (inactive)

----------
System: SNB-75
Experiment: NCI tumour cell line growth inhibition, 48 h
Calls of active or inactive are those of the source. Cut-off read from the data, not from the text of the source: active = GI50 up to about 1.1 µM and inactive = higher.
Field 'call' accepts active, inactive

Ask: Please indicate how the test categorized C/C(=C\COc1ccc2ccc(=O)oc2c1)CCC(=O)C(C)(C)O .
Reply: inactive

Ask: What did the test return for CC(=O)O[C@H]1CC[C@@]2(C)C(=CC[C@H]3[C@@H]4C/C(=C\c5ccncc5)[C@H](OC(C)=O)[C@@]4(C)CC[C@@H]32)C1 ?
Reply: inactive

Ask: Name the outcome recorded for Cc1ccc2c(c1)[n+]([O-])c(N)n[n+]2[O-] in the assay.
Reply: inactive

----------
Tested on: NCI-H460
Assay: NCI tumour cell line growth inhibition, 48 h
Calls of active or inactive are those of the source. Cut-off read from the data, not from the text of the source: active = GI50 up to about 1.1 µM and inactive = higher. Peptide text beside a SMILES is read from it. * marks the point of attachment. Trt = c1ccc(C(c2ccccc2)(c2ccccc2)*)cc1; Cbz = O=C(OCc1ccccc1)*
Your reply should match one of these outcome classes. active, inactive

1. COc1ccc(-c2oc3cc(O)c(OC)c(O)c3c(=O)c2OC2OC(CO)C(O)C(O)C2O)cc1 (stereo not given) ... inactive
2. Cc1ccccc1NC(=O)c1cc(-c2ccc([N+](=O)[O-])cc2)nc(S)n1 ... inactive
3. N#Cc1ccccc1NC(=O)C(=O)c1c(O)c2ccccc2oc1=O ... inactive
4. Cc1cc(C)nc(NC(=S)Nc2ccc(Cl)cc2)c1 ... inactive
5. OC1(c2ccccc2)CSC2=Nc3ccccc3C3CCN1N23 (stereo not given) ... inactive

Ask: Would you mind telling me which call this test gave N[C@@H]1C[C@H](N)c2c(Cl)sc(Cl)c21 ?
Reply: inactive

Ask: Could you please tell me the result logged for CCOC(=O)C1=C(N)N(c2ccccc2)/C(=C(/C#N)c2nc3ccccc3[nH]2)S1 in this assay?
Reply: inactive

Ask: Recorded test outcome, item O=C(O)c1ccc(NNC(=O)c2cccc3c(=O)c4ccccc4[nH]c23)cc1
Reply: inactive

Ask: Which result was noted for this molecule in the test: CC(=O)OCC1OC(n2cc([N+](=O)[O-])c(=O)[nH]c2=O)C(OC(C)=O)C(OC(C)=O)C1OC(C)=O (stereo not given)
Reply: inactive

Ask: In this assay, the call recorded for OC(CCN1CCN(CCOC(c2ccccc2)c2ccccc2)CC1)c1ccccc1 (stereo not given) was what?
Reply: inactive

Ask: Could you check what this test reported for Brc1ccc2c(C3CN[C@@H](c4c[nH]c5cc(Br)ccc45)CN3)c[nH]c2c1 (stereo not given in full) ?
Reply: inactive

Ask: Name the outcome recorded for COC(=O)C(CO)NC(=O)C(CSC(c1ccccc1)(c1ccccc1)c1ccccc1)NC(=O)OCc1ccccc1 (stereo not given) (Cbz-Cys(Trt)-Ser-OMe; configuration not given here) in the assay.
Reply: inactive

----------
System: CCRF-CEM
Assay: NCI tumour cell line growth inhibition, 48 h
The source made the active and inactive calls. Cut-off read from the data, not from the text of the source: active = GI50 up to about 1.1 µM and inactive = higher.
quantityName: GI50

Ask: Query (compound): COc1ccc(OC)c2c1C(=O)C(O)=C(Cl)C2=O ; field requested: GI50
Reply: > 100 µM (inactive)

Ask: Reported GI50 for CCOC(=O)OC1C(Br)C2CCC1(C)C2(C)C (stereo not drawn) : what is it?
Reply: 4.88 µM (inactive)

Ask: Request the reported GI50 associated with CCOc1ccc(C(=O)/C=C2/Nc3ccccc3N/C2=C/C(=O)c2ccc(OCC)cc2)cc1
Reply: 29.7 µM (inactive)

Ask: Query (compound): Cc1ccc(NC=O)c(-c2c(N)[nH]c(=S)[nH]c2=O)c1 ; field requested: GI50
Reply: > 100 µM (inactive)

Ask: For the compound shown here, COC(=O)C1=C(C)NC(C)=C(C(=O)OC)C1c1cccc(/[N+]([O-])=C/c2ccccc2)c1 , give the reported GI50.
Reply: 11 µM (inactive)

Ask: # query: GI50 of entry COC1CC(OC2C(C)OC(OC3C(C)OC(OC4C(O)CC(O[C@H]5CC[C@@]6(C)C(=CC[C@]7(O)[C@@H]6C[C@@H](OC(=O)/C=C/c6ccccc6)[C@@]6(C)[C@]7(O)CC[C@@]6(O)C(C)=O)C5)OC4C)CC3OC)CC2OC)OC(C)C1O (stereo partly drawn)
Reply: > 6.25 µM (inactive)

Ask: Return reported GI50; argument: N#CC(C(=O)C(=O)Nc1ccc(Cl)cc1)c1ccccc1 (stereo not drawn)
Reply: > 100 µM (inactive)

Ask: Endpoint output: GI50 of N=C(N)NS(=O)(=O)c1ccc(NC(=O)c2cccc3c(Nc4ccc(S(N)(=O)=O)cc4)c4ccccc4nc23)cc1 . Value?
Reply: > 100 µM (inactive)

----------
System: COLO 205
Assay: NCI tumour cell line growth inhibition, 48 h
The source made the active and inactive calls. Rule as the data show it: active = GI50 up to about 1.1 µM and inactive = higher.
quantityName: GI50

Recorded GI50, per entry:
1) Cc1cc(C)c2c(c1)N[S@@](=O)S2 ... 18.2 µM (inactive)
2) O=C(Nc1ccccc1Cl)c1ccc([N+](=O)[O-])cc1 ... > 100 µM (inactive)
3) N[C@@H]1C[C@H](N)c2c(Cl)sc(Cl)c21 ... > 100 µM (inactive)
4) COc1ccc(C(C)NNC(=O)c2ccncc2)cc1F (centres undefined) ... > 100 µM (inactive)
5) C/C(=C\COc1ccc2ccc(=O)oc2c1)CCC(=O)C(C)(C)O ... 20.7 µM (inactive)

Ask: So what GI50 did O=S1OC(c2ccccc2)(c2ccccc2)C(c2ccccc2)(c2ccccc2)O1 get with COLO 205?
Reply: > 100 µM (inactive)

Ask: Record COC(=O)C1=Cc2cc3c(cc2[C@H](c2ccc4c(c2)OCO4)C1C(=O)OC)OCO3 (some centres undefined) : what is its GI50 with COLO 205?
Reply: 37.8 µM (inactive)

Ask: Param readout= GI50; system= COLO 205; entry= O=C(NCCCCCCNCc1cccc2ccccc12)Nc1cccc2ccccc12 ; returns value.
Reply: > 100 µM (inactive)

Ask: // fetch COLO 205 GI50 for CCN1C(NCCO)=NS(=O)(=O)c2ccccc21
Reply: > 100 µM (inactive)

Ask: API: value(readout= GI50, system= COLO 205, query= O=C(O)c1ccccc1-c1ccccc1C(=O)Nc1ccc2c(c1)Cc1ccccc1-2 )
Reply: 17.2 µM (inactive)

Ask: Query GI50 on COLO 205 for Clc1ccc(-c2nnc3c4nnc(-c5ccc(Cl)cc5Cl)n4c4ccccc4n23)c(Cl)c1
Reply: > 100 µM (inactive)

Ask: Which GI50 is reported with COLO 205 for this entry: CCCCCCCCCCCC[C@H](O)[C@H]1CC[C@H]([C@H](O)CCCC[C@H](O)CCCCC[C@@H](O)CC2=C[C@H](C)OC2=O)O1 ?
Reply: 4.21 µM (inactive)

Ask: Param readout= GI50; system= COLO 205; entry= CC(=O)c1c(-c2cccc3ccccc23)c(C#N)c(=S)n(C2OC(CO)C(O)C(O)C2O)c1C (centres undefined) ; returns value.
Reply: > 100 µM (inactive)
